Source: patent US8088763B2

Target System: 5HT-uptake (Rattus norvegicus, UniProt P31652)
Construct: synaptosomes were freshly isolated from areas of rats' brains
Sequence (P31652 whole entry): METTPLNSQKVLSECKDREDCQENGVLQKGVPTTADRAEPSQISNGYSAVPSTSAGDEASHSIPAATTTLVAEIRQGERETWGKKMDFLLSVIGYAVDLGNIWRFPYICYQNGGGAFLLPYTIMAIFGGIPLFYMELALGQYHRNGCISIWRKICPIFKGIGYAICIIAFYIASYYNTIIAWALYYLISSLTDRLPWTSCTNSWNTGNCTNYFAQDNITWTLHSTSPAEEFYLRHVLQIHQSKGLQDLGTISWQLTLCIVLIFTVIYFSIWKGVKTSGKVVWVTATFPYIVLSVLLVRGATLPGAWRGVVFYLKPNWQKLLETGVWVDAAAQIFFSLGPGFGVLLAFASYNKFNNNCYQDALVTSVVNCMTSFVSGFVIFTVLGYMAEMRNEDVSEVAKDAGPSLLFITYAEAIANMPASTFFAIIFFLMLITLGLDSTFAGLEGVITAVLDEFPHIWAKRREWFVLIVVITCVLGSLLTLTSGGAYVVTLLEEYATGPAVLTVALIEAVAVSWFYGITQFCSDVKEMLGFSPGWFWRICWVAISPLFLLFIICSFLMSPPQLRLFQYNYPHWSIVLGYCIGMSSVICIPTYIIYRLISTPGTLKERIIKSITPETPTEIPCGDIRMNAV
Measurement Notes: biochemical
Study Conditions: read-out: 5HT-uptake [10 μM], % inhibition
Here the recorded inhibition at 10 µM is given for each entry.

[
  {
    "Molecule": "COc1cc(CN2CCN(C(=O)CCC(=O)NC3CCC(Cc4ccc(C)cc4)(N(C)C)CC3)CC2)cc2c1OCO2 (stereo not drawn)",
    "inhibition at 10 µM [%]": 92
  },
  {
    "Molecule": "CN(C)C1(Cc2cccc(Cl)c2)CCC(NC(=O)CCC(=O)NC2CCOC2=O)CC1 (stereo not drawn)",
    "inhibition at 10 µM [%]": 95
  },
  {
    "Molecule": "Cc1ccc(CC2(N(C)C)CCC(NC(=O)CCC(=O)N3CC=CCC3)CC2)cc1 (stereo not drawn)",
    "inhibition at 10 µM [%]": 93
  },
  {
    "Molecule": "CN(C)C1(Cc2ccc(Cl)cc2)CCC(NC(=O)CCC(=O)NCCC(c2ccccc2)c2ccccc2)CC1 (stereo not drawn)",
    "inhibition at 10 µM [%]": 94
  },
  {
    "Molecule": "CCN(Cc1ccncc1)C(=O)CCC(=O)NC1CCC(Cc2ccc(Cl)cc2)(N(C)C)CC1 (stereo not drawn)",
    "inhibition at 10 µM [%]": 93
  },
  {
    "Molecule": "COc1ccc(NC(=O)CCC(=O)NC2CCC(Cc3ccc(Cl)cc3)(N(C)C)CC2)cc1 (stereo not drawn)",
    "inhibition at 10 µM [%]": 94
  }
]

###

Target System: NA-uptake (Rattus norvegicus, UniProt Q63380)
Sequence (Q63380 1-617): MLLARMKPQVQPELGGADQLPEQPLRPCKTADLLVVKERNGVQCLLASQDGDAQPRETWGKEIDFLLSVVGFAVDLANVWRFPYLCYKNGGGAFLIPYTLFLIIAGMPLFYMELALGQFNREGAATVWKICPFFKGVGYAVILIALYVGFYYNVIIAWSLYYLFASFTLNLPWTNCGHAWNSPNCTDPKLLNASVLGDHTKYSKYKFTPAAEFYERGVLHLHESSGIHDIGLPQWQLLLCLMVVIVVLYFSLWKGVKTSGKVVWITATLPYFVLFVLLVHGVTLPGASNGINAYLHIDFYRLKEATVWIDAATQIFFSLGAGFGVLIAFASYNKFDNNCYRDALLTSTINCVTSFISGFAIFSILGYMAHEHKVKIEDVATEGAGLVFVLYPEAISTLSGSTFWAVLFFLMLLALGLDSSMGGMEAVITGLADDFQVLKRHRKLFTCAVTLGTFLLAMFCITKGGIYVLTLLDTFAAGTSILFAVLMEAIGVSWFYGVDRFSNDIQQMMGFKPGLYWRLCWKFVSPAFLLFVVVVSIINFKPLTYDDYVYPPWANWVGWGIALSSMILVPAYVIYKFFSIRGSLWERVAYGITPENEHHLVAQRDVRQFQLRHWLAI
Measurement Notes: biochemical
Study Conditions: read-out: NA-uptake [10 μM], % inhibition
Here the recorded inhibition at 10 µM is given for each entry.

[
  {
    "Compound": "CN(C)C1(Cc2ccc(Cl)cc2)CCC(NC(=O)CCC(=O)NCCc2c[nH]c3ccccc23)CC1 (centres unmarked)",
    "Measure Unit": "%",
    "inhibition at 10 µM": 88
  },
  {
    "Compound": "CN(C)C1(Cc2ccc(Cl)cc2)CCC(NC(=O)CCC(=O)NCCC(c2ccccc2)c2ccccc2)CC1 (centres unmarked)",
    "Measure Unit": "%",
    "inhibition at 10 µM": 89
  },
  {
    "Compound": "Cc1cccc(CC2(N(C)C)CCC(NC(=O)CCC(=O)N3CCC(C)CC3)CC2)c1 (centres unmarked)",
    "Measure Unit": "%",
    "inhibition at 10 µM": 90
  },
  {
    "Compound": "Cc1ccc(CC2(N(C)C)CCC(NC(=O)CCC(=O)N(C)CCNC(=O)C(F)(F)F)CC2)cc1 (centres unmarked)",
    "Measure Unit": "%",
    "inhibition at 10 µM": 77
  },
  {
    "Compound": "CN(Cc1cccnc1)C(=O)CCC(=O)NC1CCC(Cc2cccc(Cl)c2)(N(C)C)CC1 (centres unmarked)",
    "Measure Unit": "%",
    "inhibition at 10 µM": 83
  },
  {
    "Compound": "Cc1ccccc1CNC(=O)CCC(=O)NC1CCC(Cc2ccc(Cl)cc2)(N(C)C)CC1 (centres unmarked)",
    "Measure Unit": "%",
    "inhibition at 10 µM": 89
  },
  {
    "Compound": "CN(CCc1c[nH]c2ccccc12)C(=O)CCC(=O)NC1CCC(Cc2cccc(Cl)c2)(N(C)C)CC1 (centres unmarked)",
    "Measure Unit": "%",
    "inhibition at 10 µM": 94
  },
  {
    "Compound": "CCOc1ccccc1CNC(=O)CCC(=O)NC1CCC(Cc2ccc(C)cc2)(N(C)C)CC1 (centres unmarked)",
    "Measure Unit": "%",
    "inhibition at 10 µM": 84
  },
  {
    "Compound": "Cc1cnc(C(=O)N2CCN(C(=O)CCCC(=O)NC3CCC(Cc4ccccc4)(N(C)C)CC3)CC2)cn1 (centres unmarked)",
    "Measure Unit": "%",
    "inhibition at 10 µM": 90
  },
  {
    "Compound": "CCOC(=O)N1CCN(C(=O)CCC(=O)NC2CCC(Cc3cccc(Cl)c3)(N(C)C)CC2)CC1 (centres unmarked)",
    "Measure Unit": "%",
    "inhibition at 10 µM": 96
  },
  {
    "Compound": "Cc1ccc(CCNC(=O)CCC(=O)NC2CCC(Cc3ccc(C)cc3)(N(C)C)CC2)cc1 (centres unmarked)",
    "Measure Unit": "%",
    "inhibition at 10 µM": 96
  }
]
